meta.source: patent US20090285799A1

What Kd was measured for each of the following?
- tested-target: T1, hIL-13Rα1.ECR (N-terminal FLAG-tagged fusion protein of the extracellular region of human IL-13Rα1) (human, UniProt P78552 29-343)
- T1 construct: also called human IL-13Rα1.ECR; hIL-13Rα1 extracellular domain
- T1 sequence: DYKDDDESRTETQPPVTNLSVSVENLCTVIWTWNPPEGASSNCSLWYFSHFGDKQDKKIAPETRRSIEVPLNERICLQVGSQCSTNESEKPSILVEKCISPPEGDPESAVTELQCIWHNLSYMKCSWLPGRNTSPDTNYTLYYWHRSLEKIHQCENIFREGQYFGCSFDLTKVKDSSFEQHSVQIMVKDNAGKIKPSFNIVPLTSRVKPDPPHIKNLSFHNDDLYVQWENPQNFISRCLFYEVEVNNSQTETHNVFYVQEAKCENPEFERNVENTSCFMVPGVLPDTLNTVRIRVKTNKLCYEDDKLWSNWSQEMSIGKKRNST
- assay-notes: BIACORE SPR, chip-bound hIL-13Rα1 extracellular domain, Fab format
A number alone suffices; assume pM.

The binder listed as 8B4-74C (Fab) (Fab, V domains shown, Fab format; only CDR3s were mutated) VH: EVQVLESGGGLVQPGGSLRLSCAASGFTFSNYAMTWVRQAPGKGLEWVSTISGRGYSIYYADSVKGRFTISRDNSKNTVYLQMNSLRAEDTAVYYCAKEEGHWYFDVWGRGTLVTVSS VL: EIVLTQSPDFQSVTPKEKVTITCRASQSIGSSLHWYQQKPDQSPKLLIKYASQSFSGVPSRFSGSGSGTDFTLTINSLEAEDAAAYYCMSSLGLPYTFGQGTKLEIK shows Kd equal to 45

The binder listed as 8B4 (Fab) (Fab, V domains shown, Fab format from vector pFab3d) VH: EVQVLESGGGLVQPGGSLRLSCAASGFTFSNYAMTWVRQAPGKGLEWVSTISGRGYSIYYADSVKGRFTISRDNSKNTVYLQMNSLRAEDTAVYYCAKEEGHWYFDVWGRGTLVTVSS VL: EIVLTQSPDFQSVTPKEKVTITCRASQSIGSSLHWYQQKPDQSPKLLIKYASQSFSGVPSRFSGSGSGTDFTLTINSLEAEDAAAYYCHQSSSLPYTFGQGTKLEIK shows Kd equal to 2150

The binder listed as 8B4-21C (Fab) (Fab, V domains shown, Fab format; only CDR3s were mutated) VH: EVQVLESGGGLVQPGGSLRLSCAASGFTFSNYAMTWVRQAPGKGLEWVSTISGRGYSIYYADSVKGRFTISRDNSKNTVYLQMNSLRAEDTAVYYCAKEEGHWYFDVWGRGTLVTVSS VL: EIVLTQSPDFQSVTPKEKVTITCRASQSIGSSLHWYQQKPDQSPKLLIKYASQSFSGVPSRFSGSGSGTDFTLTINSLEAEDAAAYYCKSSAGLPYTFGQGTKLEIK shows Kd equal to 170

The binder listed as 8B4-36 (Fab) (Fab, V domains shown, Fab format; only CDR3s were mutated) VH: EVQVLESGGGLVQPGGSLRLSCAASGFTFSNYAMTWVRQAPGKGLEWVSTISGRGYSIYYADSVKGRFTISRDNSKNTVYLQMNSLRAEDTAVYYCAKEEGHWYFDVWGRGTLVTVSS VL: EIVLTQSPDFQSVTPKEKVTITCRASQSIGSSLHWYQQKPDQSPKLLIKYASQSFSGVPSRFSGSGSGTDFTLTINSLEAEDAAAYYCVSSWGLPYTFGQGTKLEIK shows Kd equal to 85

The binder listed as 8B4-78M (Fab) (Fab, V domains shown, Fab format; only CDR3s were mutated) VH: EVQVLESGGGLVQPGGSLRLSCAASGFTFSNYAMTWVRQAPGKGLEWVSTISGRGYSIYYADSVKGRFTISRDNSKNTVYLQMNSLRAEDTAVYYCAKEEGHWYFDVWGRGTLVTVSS VL: EIVLTQSPDFQSVTPKEKVTITCRASQSIGSSLHWYQQKPDQSPKLLIKYASQSFSGVPSRFSGSGSGTDFTLTINSLEAEDAAAYYCMSSMGLPYTFGQGTKLEIK shows Kd equal to 49
